Recorded values, source paper PMC10397247.

Recorded interaction score values for a group of binders are listed next.
# Assayed target: T1, APC2811-AA
# T1 chain: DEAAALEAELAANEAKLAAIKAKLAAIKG
# Measurement protocol: two-hybrid library CCmax;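 note: natural log of median RNA to DNA barcode read ratio; higher means stronger binding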
# Experimental parameters: mean of both orientations
API doc: respond with a numeric literal and nothing else, no unit.

Example entries begin here.
Quick one: interaction score of DEAAALEAENAALEAKLAAEKAENAALEG [APC2474-AA] ? -1.58

Quick one: interaction score of DKLAAIKAKLAANKAELAANEAKLAAEKG [APC1987-AA] ? -1.92

Quick one: interaction score of DEAAALEAKLAAEKAEAAALEAENAALEG [APC2724-AA] ? -1.76

Quick one: interaction score of DKLAAIKAKLAAIKAKLAAIKAKNAALKG [APC1115-AA] ? -1.19

Quick one: interaction score of DKLAAIKAKLAANKAKLAAIKAELAAEEG [APC1916-AA] ? -2.01

Further cases:
Quick one: interaction score of DEAAALEAEAAALEAKNAALKAKLAAEKG [APC2257-AA] ? 1.49

Quick one: interaction score of DEAAALEAKNAALKAENAALEAKAAALKG [APC2543-AA] ? -1.54

Quick one: interaction score of DEAAALEAKAAALKAKLAAEKAKNAALKG [APC2375-AA] ? -1.74

Quick one: interaction score of DKLAAIKAEAAALEAENAALEAEAAALEG [APC1242-AA] ? -1.73

Quick one: interaction score of DELAAIEAEAAALEAEAAALEAEAAALEG [APC222-AA] ? -1.59

Quick one: interaction score of DEAAALEAKNAALKAKNAALKAELAAEEG [APC2556-AA] ? -1.73
